The values you see were collected from the RNAGym collection of RNA variant scans (doi:10.7554/elife.80360).

B1: Twister Ribozyme (parent)
chain: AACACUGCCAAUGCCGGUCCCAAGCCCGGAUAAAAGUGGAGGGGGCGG

# Variants of: B1
# experimental_details: self-cleavage, relative activity (ratio to wild type); higher = more cleavage; co-transcriptional
measured_quantity: self-cleavage

> print(dat)
    mutation.list  result
 1      A32G A35C   0.914
 2      C15A U18A  0.0699
 3      U12A A40C   0.291
 4      A23G G47C   0.209
 5       C8A C19G  0.0926
 6       C3G C19A  0.0808
 7      G44A G45U    1.11
 8      C14G C27A  0.0743
 9      C19G G44U    0.29
10      U18G G44C  0.0756
11       A2C G24A  0.0674
12       A4U G29A   0.173
13      A32G C46A   0.753
14       C5A A34C   0.119
15      C20A C25A  0.0826
16       C5A A34U   0.182
17      C26U G38C   0.225
18      U12C U18G  0.0285
19       A2U C27U   0.357
20      A10G C27A   0.682
21       C9G G28A   0.512
22       C5G G41C   0.114
23       A4G C14U   0.957
24      C27U G36C    0.21
25       A4C U12A   0.193
26      G13U C14U   0.635
